Test: Cytotoxicity against mouse RAW264.7 cells assessed as cell viability by MTT assay
Type: cell-based
Parameters: concentration or dose not given beside the values
Conditions: read-out: Activity
Exercise: for every item that follows, state its recorded viability.

Below are worked cases with known answers.
Query: # viability lookup, item "COc1cc(O)c(C(=O)/C=C/c2ccc(O)c(O)c2)cc1CC=C(C)C"
Reply: > 100%

Query: # viability lookup, item "COc1cc2c(cc1CC=C(C)C)C(=O)/C(=C/c1ccc(C)cc1)O2"
Reply: > 100%

Query: # viability lookup, item "COc1ccc2c(=O)c(OCC=C(C)C)c(-c3ccc(OC)c(OC)c3)oc2c1"
Reply: > 100%

Query: # viability lookup, item "COc1ccc2c(=O)c(O)c(-c3ccc(C)cc3)oc2c1"
Reply: 78%

Query: # viability lookup, item "COc1cc(O)c(C(=O)/C=C/c2ccc(Br)cc2)cc1CC=C(C)C"
Reply: > 100%

Please give viability, item by item, for the list that follows.
1. COc1ccc2c(c1)O/C(=C\c1ccc(C)cc1)C2=O
2. COc1ccc2c(=O)c(O)c(-c3ccc(OC)c(OC)c3)oc2c1
3. COc1ccc(C(=O)/C=C/c2ccc(C)cc2)c(O)c1
4. COc1cc(O)c(C(=O)/C=C/c2ccc(-c3ccc(F)cc3)cc2)cc1CC=C(C)C
5. COc1cc2c(cc1CC=C(C)C)C(=O)/C(=C/c1ccc(OC)c(OC)c1)O2

Reply:
["> 100%", "82%", "97%", "> 100%", "> 100%"]

Query: # viability lookup, item "CC(C)=CCOc1ccc2c(c1)O/C(=C\c1ccc(C)cc1)C2=O"
Reply: > 100%

====

Test: Cytotoxicity against mouse RAW264.7 cells assessed as cell viability by MTT assay
Assay type: cell-based
Parameters: concentration or dose not given beside the values
Details: read-out: Activity
Exercise: for every item that follows, state its recorded viability.

Query: # viability lookup, item "COc1cc(O)c(C(=O)/C=C/c2ccc(C)cc2)cc1CC=C(C)C"
Reply: > 100%

Query: # viability lookup, item "COc1ccc2c(c1)O/C(=C\c1ccc(OC)c(OC)c1)C2=O"
Reply: > 100%

Query: # viability lookup, item "CC(C)=CCOc1ccc(/C=C2\Oc3ccccc3C2=O)cc1"
Reply: > 100%

Query: # viability lookup, item "COc1cc(O)c(C(=O)/C=C/c2ccc(OC)c(OC)c2)cc1CC=C(C)C"
Reply: > 100%

Please give viability, item by item, for the list that follows.
1. CS(=O)(=O)Nc1ccc([N+](=O)[O-])cc1OC1CCCCC1
2. COc1ccc(C(=O)/C=C/c2ccc(OC)c(OC)c2)c(O)c1

Reply:
1: > 100%; 2: > 100%

Please give viability, item by item, for the list that follows.
1. COc1cc(O)c(C(=O)/C=C/c2cccc(-c3ccc(F)cc3)c2)cc1CC=C(C)C
2. COc1ccc2c(=O)c(OCC=C(C)C)c(-c3ccc(C)cc3)oc2c1

Reply:
1. > 100%
2. > 100%
